- procedureText: Analysis of active substance: preservative concentration before and after storage in VI-containing polymer solution
- Type: physicochemical
- runParameters: in Polymer P6; before storage
- Experimental: Stability of Preservatives in VI-Containing Polymers: The following stabilizers for VI-containing polymers (here: aqueous solution of a copolymer of vinylpyrrolidone and vinylimidazole) were tested. MIT, BIT, CMIT, OIT, DCOIT and iodopropynyl butyl carbamate were determined by RP chromatography with UV detection after dilution of the sample to be tested. An RP18 column was used for this purpose, with an eluent composed of an acid-methanol mixture under isocratic conditions.
experimentalEndpoint: active-substance concentration, 0 d, RT (ppm)

> print(dat)
                                   compound  resultnumber
1  Cn1sccc1=O [MIT, methyl-4-isothiazolin-3-one]           250
2  CCCCCCCCCCCCCCCC[N+](C)(C)Cc1ccccc1.[Cl-] [Polymer 16-BAC, cetylalkonium chloride]          1000
3  CCCCCCCCn1sc(Cl)c(Cl)c1=O [DCOIT, dichloroctylisothiazolinone]           300
4  Cn1sc(Cl)cc1=O [CMIT, 5-chloro-N-methylisothiazolin-3-one]           150
